Assay: Solubility of crystalline posaconazole
Assay type: physicochemical
Conditions: pH 1; read-out: Solubility
measured metric: solubility (µg/mL)

1. CC[C@@H]([C@H](C)O)n1ncn(-c2ccc(N3CCN(c4ccc(OC[C@@H]5CO[C@@](Cn6cncn6)(c6ccc(F)cc6F)C5)cc4)CC3)cc2)c1=O
790

###

Assay: pKa of posaconazole
Assay type: physicochemical
Conditions: triazole N
Text: Table 1 Physical/chemical properties of posaconazole.
measured metric: pKa

1. CC[C@@H]([C@H](C)O)n1ncn(-c2ccc(N3CCN(c4ccc(OC[C@@H]5CO[C@@](Cn6cncn6)(c6ccc(F)cc6F)C5)cc4)CC3)cc2)c1=O [posaconazole]
4.6

###

Assay: Log P of posaconazole
Type: physicochemical
measured metric: logP

1. CC[C@@H]([C@H](C)O)n1ncn(-c2ccc(N3CCN(c4ccc(OC[C@@H]5CO[C@@](Cn6cncn6)(c6ccc(F)cc6F)C5)cc4)CC3)cc2)c1=O
5

###

Experiment: Solubility of crystalline posaconazole
Assay type: physicochemical
Settings: fasted state simulated intestinal fluid (FaSSIF), fassif; read-out: Solubility
measured metric: solubility

1) CC[C@@H]([C@H](C)O)n1ncn(-c2ccc(N3CCN(c4ccc(OC[C@@H]5CO[C@@](Cn6cncn6)(c6ccc(F)cc6F)C5)cc4)CC3)cc2)c1=O [posaconazole]
2 µg/mL

###

Assay: Solubility of crystalline posaconazole
Assay type: physicochemical
Conditions: simulated gastric fluid (SGF), pH 1.8; read-out: crystalline solubility
measured metric: solubility

1. CC[C@@H]([C@H](C)O)n1ncn(-c2ccc(N3CCN(c4ccc(OC[C@@H]5CO[C@@](Cn6cncn6)(c6ccc(F)cc6F)C5)cc4)CC3)cc2)c1=O
~790 µg/mL

###

Assay: pKa of posaconazole
Type: physicochemical
Settings: piperazine N
Text: Table 1 Physical/chemical properties of posaconazole.
measured metric: pKa

1) CC[C@@H]([C@H](C)O)n1ncn(-c2ccc(N3CCN(c4ccc(OC[C@@H]5CO[C@@](Cn6cncn6)(c6ccc(F)cc6F)C5)cc4)CC3)cc2)c1=O [posaconazole]
3.6

Reference source for all entries: paper PMC8401923
